All values here come from patent US20120095193A1.

Molecular target: T1, human ADAMTS5 (human, UniProt Q9UNA0 262-622, limits assumed)
T1 construct: Octet and ELISA used 'recombinant human ADAMTS5'; also called recombinant human ADAMTS5; ADAMTS5 (R&D Systems 2198-AD)
T1 sequence: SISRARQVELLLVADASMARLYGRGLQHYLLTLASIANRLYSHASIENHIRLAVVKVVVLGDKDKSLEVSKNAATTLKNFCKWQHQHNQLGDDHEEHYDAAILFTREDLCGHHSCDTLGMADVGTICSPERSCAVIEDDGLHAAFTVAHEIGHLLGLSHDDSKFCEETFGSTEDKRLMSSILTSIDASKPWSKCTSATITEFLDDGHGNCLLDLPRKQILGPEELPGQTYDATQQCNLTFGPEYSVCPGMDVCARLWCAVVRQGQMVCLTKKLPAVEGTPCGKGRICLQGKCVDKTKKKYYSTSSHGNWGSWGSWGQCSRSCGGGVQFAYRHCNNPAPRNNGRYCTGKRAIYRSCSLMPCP
Experiment: Biacore, mAb from culture supernatant captured on anti-human IgG, ADAMTS5 (R&D 2198-AD) at 64 nM, 1:1 fit
pKd: −log10 of the molar value.
Item-by-item account of pKd
VALUE_KIND: pKd

1) BPC1658 (antibody, human IgG1, kappa, V domains shown, Humanized, human gamma 1 / kappa; also called 12F4 H3L0) VH: EVQLLESGGGLVQPGGSLRLSCAASGFTFSDAWMDWVRQAPGKGLEWVAEIRHKANDHAIFYDESVKGRFTISRDNSKNTVYLQMNSLRAEDTAVYYCTSPFAYWGQGTLVTVSS VL: DIQMTQSPSSLSASVGDRVTITCKASQSVGTTIVWYQQKPGKAPKLLIYSASNRHTGVPSRFSGSGSGTDFTLTISSLQPEDFATYYCQQYTSYPFTFGQGTKLEIKR    9.51
2) BPC1642 (antibody, human IgG1, kappa, V domains shown, Humanized, human gamma 1 / kappa; also called 7B4 H1L1) VH: EVQLVESGGGLVQPGGSLRLSCAASGFTFSDAWMDWVRQAPGKGLEWVAEIRNKANNHARHYAESVKGRFTISRDNAKNSLYLQMNSLRAEDTAVYYCTRTYYYGSSYGYCDVWGQGTLVTVSS VL: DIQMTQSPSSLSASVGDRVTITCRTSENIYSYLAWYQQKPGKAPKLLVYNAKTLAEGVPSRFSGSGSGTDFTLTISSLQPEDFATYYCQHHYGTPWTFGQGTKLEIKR    8.87
3) BPC1651 (antibody, human IgG1, kappa, V domains shown, Humanized, human gamma 1 / kappa; also called 7B4 H3L2) VH: EVQLVESGGGLVQPGGSLRLSCAASGFTSSDAWMDWVRQAPGKGLEWVAEIRNKANNHARHYAESVKGRFTISRDNAKNSLYLQMNSLRAEDTAVYYCTRTYYYGSSYGYCDVWGQGTLVTVSS VL: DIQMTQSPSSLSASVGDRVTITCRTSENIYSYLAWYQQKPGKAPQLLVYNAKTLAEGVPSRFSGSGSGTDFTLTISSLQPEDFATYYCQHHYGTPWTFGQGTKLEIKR    8.93
4) BPC1657 (antibody, human IgG1, kappa, V domains shown, Humanized, human gamma 1 / kappa; also called 12F4 H2L0) VH: EVQLLESGGGLVQPGGSLRLSCAASGFTFSDAWMDWVRQAPGKGLEWVSEIRHKANDHAIFYDESVKGRFTISRDDSKNTLYLQMNSLRAEDTAVYYCTSPFAYWGQGTLVTVSS VL: DIQMTQSPSSLSASVGDRVTITCKASQSVGTTIVWYQQKPGKAPKLLIYSASNRHTGVPSRFSGSGSGTDFTLTISSLQPEDFATYYCQQYTSYPFTFGQGTKLEIKR    9.89
